test: Solubility observed in the cellular media; type: physicochemical; conditions: plasma or biological fluid, read-out: concentrations at which limited solubility in the cellular media was observed
observation_type: solubility

>>> result("COc1cc2ncnc(Oc3ccc(/C=N/Nc4nc(C)cs4)cc3)c2cc1OC [SA06]")
"> 5 µM"

* * *

test system: EA.hy926 cells; assay: Alamar Blue cytotoxicity assay on EA.hy926 cells; format: cell-based, human; settings: SIa = IC50 BJ/IC50 EA.hy296
observation_type: Selectivity Index SIa

>>> quantitative_result("COc1cc2ncnc(Oc3ccc(/C=N/Nc4nc(-c5ccc(Cl)cc5)cs4)cc3)c2cc1OC")
3.59
>>> quantitative_result("COc1cc2ncnc(Oc3ccc(/C=N/Nc4nc(-c5ccc(C#N)cc5)cs4)cc3)c2cc1OC")
1.91
>>> quantitative_result("COc1ccc(-c2csc(N/N=C/c3ccc(Oc4ncnc5cc(OC)c(OC)cc45)cc3)n2)cc1")
9.96
>>> quantitative_result("COc1cc2ncnc(Oc3ccc(/C=N/Nc4nc(-c5ccc(F)cc5)cs4)cc3)c2cc1OC")
2.53
>>> quantitative_result("COc1cc2ncnc(Oc3ccc(/C=N/Nc4nc(-c5ccc(O)c(C(N)=O)c5)cs4)cc3)c2cc1OC")
4.06
>>> quantitative_result("COc1cc2ncnc(Oc3ccc(/C=N/Nc4nc(-c5ccc(C(F)(F)F)cc5)cs4)cc3)c2cc1OC")
6.93

The values you see were collected from paper PMC10886515.
